- Assayed target: p110 delta (Homo sapiens)
- Construct: Dundee, UK
- Sequence (O00329 whole entry, one chain of several): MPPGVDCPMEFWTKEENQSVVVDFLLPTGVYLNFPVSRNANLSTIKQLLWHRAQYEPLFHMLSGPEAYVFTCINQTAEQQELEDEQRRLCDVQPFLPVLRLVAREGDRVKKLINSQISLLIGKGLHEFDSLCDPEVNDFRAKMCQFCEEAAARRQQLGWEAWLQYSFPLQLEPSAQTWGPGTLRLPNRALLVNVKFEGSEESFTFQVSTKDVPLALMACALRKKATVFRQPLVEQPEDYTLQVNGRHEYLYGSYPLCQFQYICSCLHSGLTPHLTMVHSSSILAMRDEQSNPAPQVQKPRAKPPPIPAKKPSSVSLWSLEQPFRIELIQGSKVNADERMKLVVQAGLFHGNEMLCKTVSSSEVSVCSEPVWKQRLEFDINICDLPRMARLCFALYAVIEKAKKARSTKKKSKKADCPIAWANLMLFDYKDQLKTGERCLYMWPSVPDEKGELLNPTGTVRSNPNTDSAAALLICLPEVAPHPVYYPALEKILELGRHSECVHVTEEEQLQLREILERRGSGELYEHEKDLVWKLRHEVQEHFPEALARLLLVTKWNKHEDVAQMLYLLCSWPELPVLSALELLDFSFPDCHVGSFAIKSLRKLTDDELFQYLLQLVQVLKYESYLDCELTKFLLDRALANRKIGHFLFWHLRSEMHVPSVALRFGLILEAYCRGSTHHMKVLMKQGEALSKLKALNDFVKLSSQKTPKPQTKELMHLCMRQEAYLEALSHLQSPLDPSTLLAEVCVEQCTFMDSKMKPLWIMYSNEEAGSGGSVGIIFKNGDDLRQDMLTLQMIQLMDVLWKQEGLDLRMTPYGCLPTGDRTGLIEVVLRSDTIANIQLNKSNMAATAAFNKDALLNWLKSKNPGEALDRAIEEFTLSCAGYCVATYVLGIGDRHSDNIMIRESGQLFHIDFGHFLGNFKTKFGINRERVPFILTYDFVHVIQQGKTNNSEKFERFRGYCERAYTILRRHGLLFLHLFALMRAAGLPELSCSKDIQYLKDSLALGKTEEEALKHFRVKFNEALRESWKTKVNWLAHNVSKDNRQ
- Assay protocol: PI3K isoform inhibition assay (fluorescence polarization), p110 delta
- Assay context: p110 delta binding IC50, Example 901
- Procedure: PI3K enzymatic activity was assayed by measuring the amount of product phosphatidylinositol 3,4,5-phosphate (PIP3) formed from substrate 4,5 phosphatidylinositol 4,5-phosphate (PIP2) using a fluorescence polarization displacement assay. The decrease in fluorescence polarization of a fluorescent PIP3 probe is measured as it is displaced from a PIP3-binding protein GRP-1 detector by PI3K-catalyzed product. […]
IC50 strictly less than 20 nM = Condition met. Otherwise Condition not met.

{"columns": ["Compound", "Class"],
 "data": [
  ["CN(C)C1CCN(Cc2cc3nc(N4CCc5ccccc54)nc(N4CCOCC4)c3s2)CC1 [Compound 102]", "Condition not met"],
  ["COCc1cc2ccccc2n1-c1nc(N2CCOCC2)c2nc(CN3CCC(C(C)(C)O)CC3)n(C)c2n1 [Compound 127]", "Condition not met"],
  ["Cn1c(CN2CCC(N3CCOCC3)CC2)nc2c(N3CCOCC3)nc(-c3c[nH]c4ccccc34)nc21 [Compound 104]", "Condition not met"],
  ["CN(C)C1CCN(Cc2cc3nc(-n4ccc5ccccc54)nc(N4CCOCC4)c3s2)CC1 [Compound 103]", "Condition met"],
  ["CN(C)[C@@H]1CCN(Cc2nc3c(N4CCOCC4)nc(-c4c[nH]c5ccccc45)nc3n2C)C[C@@H]1F [Compound 122]", "Condition met"],
  ["Cn1c(CN2CCC(C(C)(C)O)CC2)nc2c(N3CCOCC3)nc(-c3c[nH]c4cc(F)ccc34)nc21 [Compound 124]", "Condition not met"],
  ["CN(C)C1CCN(Cc2cc3nc(-c4c[nH]c5ccc(F)cc45)nc(N4CCOCC4)c3s2)CC1 [Compound 113]", "Condition not met"],
  ["CC(C)(OCCN1CCCC1)c1cc2nc(-c3c[nH]c4ccccc34)nc(N3CCOCC3)c2s1 [Compound 125]", "Condition met"],
  ["CN(C)C1CCN(Cc2cc3nc(-n4ccc5cc(O)ccc54)nc(N4CCOCC4)c3s2)CC1 [Compound 132]", "Condition not met"],
  ["Cc1cc2cc(F)ccc2n1-c1nc(N2CCOCC2)c2sc(CN3CCC(N(C)C)CC3)cc2n1 [Compound 119]", "Condition not met"],
  ["O=C1COC2(CCN(Cc3cc4nc(-c5c[nH]c6ccccc56)nc(N5CCOCC5)c4s3)CC2)CN1 [Compound 116]", "Condition not met"],
  ["CC(C)(C(N)=O)N1CCN(Cc2cc3nc(-c4c(C#N)[nH]c5ccccc45)nc(N4CCOCC4)c3s2)CC1 [Compound 129]", "Condition met"],
  ["c1ccc2c(-c3nc(N4CCOCC4)c4nc(CN5CC(N6CCOCC6)C5)sc4n3)c[nH]c2c1 [Compound 117]", "Condition met"]
]}

###

- Assayed target: p110 alpha (Homo sapiens, UniProt P42336)
- Construct: purchased Upstate Group, Millipore; Dundee, UK
- Sequence (P42336 whole entry): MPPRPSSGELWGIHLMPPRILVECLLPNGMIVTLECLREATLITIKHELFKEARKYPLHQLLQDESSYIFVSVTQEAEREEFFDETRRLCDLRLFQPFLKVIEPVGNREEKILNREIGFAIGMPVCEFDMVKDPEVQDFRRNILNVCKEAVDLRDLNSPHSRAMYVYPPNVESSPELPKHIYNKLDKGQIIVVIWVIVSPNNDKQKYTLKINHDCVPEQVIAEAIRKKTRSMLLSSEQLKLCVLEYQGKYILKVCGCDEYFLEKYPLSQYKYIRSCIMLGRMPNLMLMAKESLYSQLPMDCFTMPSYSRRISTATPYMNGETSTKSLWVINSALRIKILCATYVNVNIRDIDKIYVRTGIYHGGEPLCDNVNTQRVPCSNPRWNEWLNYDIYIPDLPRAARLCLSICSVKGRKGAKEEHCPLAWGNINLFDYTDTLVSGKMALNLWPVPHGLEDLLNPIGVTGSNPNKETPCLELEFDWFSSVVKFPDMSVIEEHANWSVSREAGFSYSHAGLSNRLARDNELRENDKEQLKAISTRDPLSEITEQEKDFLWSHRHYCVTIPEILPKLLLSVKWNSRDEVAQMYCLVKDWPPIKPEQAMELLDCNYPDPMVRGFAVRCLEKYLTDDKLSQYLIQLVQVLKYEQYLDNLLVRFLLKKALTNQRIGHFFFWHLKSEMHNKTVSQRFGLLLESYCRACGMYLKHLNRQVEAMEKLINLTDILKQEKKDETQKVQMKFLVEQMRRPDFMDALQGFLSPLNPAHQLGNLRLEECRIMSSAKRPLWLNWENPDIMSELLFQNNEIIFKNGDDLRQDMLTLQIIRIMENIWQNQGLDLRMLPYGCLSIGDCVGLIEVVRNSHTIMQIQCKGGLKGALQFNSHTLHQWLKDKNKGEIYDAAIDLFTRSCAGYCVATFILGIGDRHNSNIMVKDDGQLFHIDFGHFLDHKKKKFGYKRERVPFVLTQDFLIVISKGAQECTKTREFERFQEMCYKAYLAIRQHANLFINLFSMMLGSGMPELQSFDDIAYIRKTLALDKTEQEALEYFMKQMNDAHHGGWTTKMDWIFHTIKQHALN
- Sequence (P27986 whole entry partner): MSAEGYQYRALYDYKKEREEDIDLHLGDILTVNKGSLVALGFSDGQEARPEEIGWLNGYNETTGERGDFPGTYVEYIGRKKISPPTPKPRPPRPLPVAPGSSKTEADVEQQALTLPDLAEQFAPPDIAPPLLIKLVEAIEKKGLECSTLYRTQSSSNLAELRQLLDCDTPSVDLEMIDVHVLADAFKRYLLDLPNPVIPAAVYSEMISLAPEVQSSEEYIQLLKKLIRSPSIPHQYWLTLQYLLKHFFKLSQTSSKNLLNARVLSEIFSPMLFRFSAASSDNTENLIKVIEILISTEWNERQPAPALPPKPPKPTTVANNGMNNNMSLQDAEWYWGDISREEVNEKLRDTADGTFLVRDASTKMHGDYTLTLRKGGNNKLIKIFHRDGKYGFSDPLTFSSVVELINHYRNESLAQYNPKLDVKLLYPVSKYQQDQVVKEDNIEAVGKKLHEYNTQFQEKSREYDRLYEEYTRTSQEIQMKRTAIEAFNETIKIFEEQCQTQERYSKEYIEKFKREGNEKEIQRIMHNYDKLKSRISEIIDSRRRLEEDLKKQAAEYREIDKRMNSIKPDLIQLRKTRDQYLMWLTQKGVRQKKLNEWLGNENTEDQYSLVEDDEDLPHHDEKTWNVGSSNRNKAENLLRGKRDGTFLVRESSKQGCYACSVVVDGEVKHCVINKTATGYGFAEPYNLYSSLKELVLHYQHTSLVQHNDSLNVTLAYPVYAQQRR
- Assay protocol: PI3K isoform inhibition assay (fluorescence polarization), p110 alpha, used for delta/alpha selectivity
- Assay context: ratio of biochemical IC50 values
IC50 p110 alpha/IC50 p110 delta strictly less than 100 = 1. Otherwise 0.

{"columns": ["Smiles code", "Class"],
 "data": [
  ["COCc1cc2ccccc2n1-c1nc(N2CCOCC2)c2nc(CN3CCC(C(C)(C)O)CC3)n(C)c2n1", 0],
  ["CN(C)C1CCN(Cc2cc3nc(-c4c[nH]c5ccc(F)cc45)nc(N4CCOCC4)c3s2)CC1", 1],
  ["CN(C)C1CCN(Cc2cc3nc(-n4ccc5ccccc54)nc(N4CCOCC4)c3s2)CC1", 1],
  ["CC(C)(C(N)=O)N1CCN(Cc2cc3nc(-c4c(C#N)[nH]c5ccccc45)nc(N4CCOCC4)c3s2)CC1", 0],
  ["CN(C)C1CCN(Cc2cc3nc(-n4ccc5cc(O)ccc54)nc(N4CCOCC4)c3s2)CC1", 1],
  ["O=C1COC2(CCN(Cc3cc4nc(-c5c[nH]c6ccccc56)nc(N5CCOCC5)c4s3)CC2)CN1", 1],
  ["Cn1c(CN2CCC(C(C)(C)O)CC2)nc2c(N3CCOCC3)nc(-c3c[nH]c4cc(F)ccc34)nc21", 0],
  ["CC(C)(OCCN1CCCC1)c1cc2nc(-c3c[nH]c4ccccc34)nc(N3CCOCC3)c2s1", 1],
  ["CN(C)C1CCN(Cc2cc3nc(N4CCc5ccccc54)nc(N4CCOCC4)c3s2)CC1", 1],
  ["Cn1c(CN2CCC(C(C)(C)O)CC2)nc2c(N3CCOCC3)nc(-n3c(C#N)cc4ccccc43)nc21", 0],
  ["CN(C)[C@@H]1CCN(Cc2nc3c(N4CCOCC4)nc(-c4c[nH]c5ccccc45)nc3n2C)C[C@@H]1F", 1],
  ["Cn1c(CN2CCC(N3CCOCC3)CC2)nc2c(N3CCOCC3)nc(-c3c[nH]c4ccccc34)nc21", 0],
  ["Cc1cc2cc(F)ccc2n1-c1nc(N2CCOCC2)c2sc(CN3CCC(N(C)C)CC3)cc2n1", 1],
  ["c1ccc2c(-c3nc(N4CCOCC4)c4nc(CN5CC(N6CCOCC6)C5)sc4n3)c[nH]c2c1", 0]
]}

Data origin, for the record: patent US8158625B2
